Tested on: Streptococcus pneumoniae (ATCC6305)
procedure details: In-vitro anti-bacterial microtitre plate assay, IC90 determination (SPN 1 6305)
Assay type: cell-based
experimental parameters: Streptococcus pneumoniae, ATCC6305, 24 h, 90% inhibitory concentration for bacterial growth, 37° C., resazurin fluorescence
readout type: IC90 (µg/mL)

Worked examples, 6 compounds total:
COc1nc2ccc(Br)cc2cc1C(c1ccccc1)C(O)(CCCCN(C)C)c1cccc(-c2ccc(C)cc2)c1 (single isomer, unassigned)
1.97
COc1nc2ccccc2cc1C(c1cccc(-c2ccncc2)c1)C(O)(CCCCN(C)C)c1ccc2ccccc2c1 (single isomer, unassigned)
1.8
COc1nc2ccccc2cc1C(c1ccc(-c2cccnc2)cc1)C(O)(CCCCN(C)C)c1ccc2ccccc2c1 (single isomer, unassigned)
1.8
COc1nc2ccccc2cc1C(c1ccc(-c2ccoc2)cc1)C(O)(CCCCN(C)C)c1ccc2ccccc2c1 (single isomer, unassigned)
2
COc1nc2ccccc2cc1C(c1ccc(-c2cnn(C)c2)cc1)C(O)(CCCCN(C)C)c1ccc2ccccc2c1 (single isomer, unassigned)
1.9
COc1nc2ccccc2cc1C(c1cccc(-c2cnc3ccccc3c2)c1)C(O)(CCCCN(C)C)c1ccc2ccccc2c1 (single isomer, unassigned)
2

1: COc1ccc(-c2cccc(C(O)(CCCCN(C)C)C(c3ccccc3)c3cc4cc(Br)ccc4nc3OC)c2)cc1 (single isomer, unassigned)
2: COc1nc2ccc(Br)cc2cc1C(c1ccccc1)C(O)(CCCCN(C)C)COc1ccc(C)cc1 (single isomer, unassigned)
Task: Which of the two gives a bigger number for IC90: 1 or 2 ? Let me know the label of the one you choose.
Result: 2
